# EXPERIMENTAL_TARGET: RSV prefusion F (preF, DS-Cav1) (Respiratory syncytial virus)
# EXPERIMENTAL_PROTOCOL: BLI, IgG on sensor, 100 nM antigen
Readings of Kd for the listed binders
Write down the numeric answer in nM and omit the unit.

Example results:
ADI-41299 (antibody, V domains shown) VH: EVQLVESGGGLVHPGRSLRLSCGASGFTFRSFAMHWVRQAPGKGLEWVAVISYDGSDEYYADSVKGRFTISRDNSRNTLFLQMNRLRPEDTAIYYCARAYCSTSNCPVLDYWGQGTLVTVSS VL: QSVLIQPASVSGSPGQSITISCTGTSSDVGGYSLVSWYQQHPGKAPKLIIFEGNKRPAGVSDRFSGSKYGDTASLTISGLQAEDEADYYCCSYAGGHSVFGGGTKVTVL: 3.48
ADI-41282 (antibody, V domains shown) VH: QVQLVQSGGGVVQPGRSLRLSCAASGFMFTIYSMHWVRQAPGKGLEWVAVISNDGVNKYYSDSVKGRFTISRDNSKNTLYLQMNNLRAEDTAVYYCASDIVVLVTATDYWGQGTLVTVSS VL: ETTLTQSPVTLSLSPGERATLSCRTSQSFSSPLLAWYQQKPGQAPRLLIYGASNRATGIPDRFSGSGSGTDFTLTISRLEPVDFAVYYCQQYGSSPYTFGQGTKLEIK: 3.25

Kd for ADI-41309 (antibody, V domains shown) VH: EVQLLESGPGLVKPSQTLSLTCTVSGGSISSGDYYWSWVRQPPGKGLEWIGNIYHSGSTYYKPSLKSRVSISLDTSKNQFSLKLSSVTAADTAIYYCARDGGENYVWGTFRFLDVWGQGTTVTVSS VL: DIRLTQSPGTLSLSPGERATLSCRASQSVSSSYLAWYQQKPGQAPRLLIYGVSSRATGIPDRFSGSGSGTDFTLTINRLEPEDFALYHCQQYGSSPHTFGQGTKVEIK is 4.34

Consider ADI-41347 (antibody, V domains shown) VH: EVQLVESGPGLVKPSGTLSLTCAVSGGSVSSDNWWSWVRQPPGKGIEWIGEIYPSGGTNYNPSLNSRVTISVDKSKNQFSLKLNSVTAADTAIYYCARAPFDSSGYHSNSVWGQGTLVTVSS VL: ETTLTQSPLSLPVTPGEPASISCRSSQSLLHSNGHNYLDWYVQKPGQSPQLLIYLSSNRASGVPDRFSGSGSGTDFTLRISRVEAEDVGVYYCMQPLQTPQTFGQGTKVEIK . Its measured Kd is 2.6

Form: binder = ADI-41343 (antibody, V domains shown) VH: EVQLVESGGGLVKPGGSLRLSCAASGFTFSSYYMNWVRQAPGKGLEWVSSISGGSSYISYADSVKGRFTISRDNAKNSLYLQMNSLRAEDTAVYYCARVDTPMVRGYYFDYWGQGTLVTVSS VL: QSVLTQPPSVSGAPGRRVTISCTGSSSNIGAGYDVHWYQQLPGTAPKLLIFANSNRPSGVPDRFSGSKSGTSASLAITGLQAEDEADYYCQSYDSSLSGSVFGGGTKVTVL ; Kd = 0.721

Value of Kd reported for the binder ADI-41291 (antibody, V domains shown) VH: QVQLQQWGAGLLKPSETLSLTCVVYGESFSDSGYYWTWIRQPPEKGLEWIGEINHGGSTSYNPSLKSRVTISVDTSENQFSLKVTSVTGADTAVYYCARLRLGCSGGSCYSRFDYWGQGTLVTVSS VL: DIQLTQSPSSLSASVGDRVTITCRASQSINSYLNWYQQKPGKAPVLLIHAASSLQGGVPSRFSGSGSGTDFTLTISSLQPEDFATYYCQQSYNTRWTFGHGTKVDIK is 2.98

Entry ADI-41285 (antibody, V domains shown) VH: QVQLVQSGAEVKKPGSSVKVSCKASGGTFSYYAISWVRQAPGQGLEWMGGIIPILGTVKNAQKFQGRVTITADKITSIAYMELSSLRHEDTAVYYCARDYYDSSGYYYNGYGMDVWGQGTTVTVSS VL: QSVLIQPPSASGTPGQRVTISCSGSSSNIGSNYVYWYQQLPGTAPKLLIYRNDQRPSGVPDRFSGSKSGTSASLAISGLRSGDEADYYCAAWDDSLGGPIWVFGGGTKLTVL ; Kd = 0.511

Briefly, Kd measured for ADI-41270 (antibody, V domains shown) VH: EVQLVESGGGVVQPGQSLRLSCAASGFTFSSFAMHWVRQAPGKGLEWVAVISYDGSNKYYADSVKGRFTISRDNSKNTLSLQVNSLRAEDTAVYYCARVSAEGSMGRFSDFNYWGLGTLVTVSS VL: QSALTQPASVSGSPGQSITISCTGTSSDVGSYNLVSWYQQHPGKAPKLMIYEVRKRPSGVSNRFSGSKSGNTASLTISGLQAEDEADYYCCSYAGSDTYVFGTGTKLTVL : 4.92

Input ADI-41297 (antibody, V domains shown) VH: QVQLVQSGAEVKKPGSSVKVSCKASGGTFSTDAISWVRQAPGQGLEWMGGIIPLFGTANYAQKFQGRVTITADESTSTAYMELNSLRSVDTAVYYCGRTGAFDGEVVVRPHLDLWGQGTLVTVSS VL: QPVLTQPASVSGSPGQSITISCTGTSSDVGGYDYVSWYQHHPGKAPKLMIYEVSNRPSGVSNRFSGSKSGNTASLTISGLQADDEAAYYCSSYTRSNTLLFGGGTKLTVL . Output Kd: 3.91

# Kd (binder: ADI-41346 (antibody, V domains shown) VH: QVQLVQSGPEVKKPGESLKISCTLSASGLTTYWIGWVRQMPAKGLEWMGIIFPGDSDTRYSPSFQGQVTISADKSTNTAYLQWSGLKASDTAIYYCATLQTPVTGLDQWGQGTLVTVSS VL: NFMLTQPHSVSESPGKTVTISCTRSSGNIARSYVQWYQQRPGSAPTTVIHEDDQRPSGVPDRFSGSIDTSSNSASLTISGLKTEDEADYYCQSYDPSNYVFGTGTKVTVL ) is 1.88
